Hello, the source for this data is patent US20220324909A1, in case you need it.

Below, each entry is listed alongside its reported β-Arrestin recruitment, Percent of Apelin-13 Control Activity (10 µM peptide).
TARGET_OR_SYSTEM: ProLink tagged human APJ (Apelin Receptor) in CHO-K1 AGTRL1 β-Arrestin cells (human, UniProt P35414 1-380)
Sequence (P35414 whole entry): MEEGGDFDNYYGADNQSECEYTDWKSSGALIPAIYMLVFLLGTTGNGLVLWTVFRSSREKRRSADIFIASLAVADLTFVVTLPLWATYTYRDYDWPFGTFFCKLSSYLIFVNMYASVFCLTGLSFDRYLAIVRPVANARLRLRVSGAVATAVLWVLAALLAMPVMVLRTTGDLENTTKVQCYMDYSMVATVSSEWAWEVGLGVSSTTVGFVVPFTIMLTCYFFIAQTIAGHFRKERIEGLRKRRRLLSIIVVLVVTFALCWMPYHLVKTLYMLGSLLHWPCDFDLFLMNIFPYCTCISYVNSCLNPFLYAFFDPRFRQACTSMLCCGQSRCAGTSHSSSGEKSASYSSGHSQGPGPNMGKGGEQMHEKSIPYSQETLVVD
ASSAY_INFO: cell-based or functional assay
OUTCOME_MEASURE: β-Arrestin recruitment, Percent of Apelin-13 Control Activity (10 µM peptide)

[
  {
    "BINDER": "RRMMGMV [SEQ ID NO 56]",
    "RESULT": "0 % of Apelin-13 control"
  },
  {
    "BINDER": "RXMMGMVFQSLCGA ((AIB) aminoisobutyric acid at position 2; (dA) D-alanine at position 14) [SEQ ID NO 34]",
    "RESULT": "8 % of Apelin-13 control"
  },
  {
    "BINDER": "RRMMGMVFQS [SEQ ID NO 59]",
    "RESULT": "0 % of Apelin-13 control"
  },
  {
    "BINDER": "MMGMV [SEQ ID NO 44]",
    "RESULT": "0 % of Apelin-13 control"
  }
]
